subject-of-test: TDG (thymine DNA glycosylase) (human, UniProt Q13569 1-410)
Sequence (Q13569 whole entry): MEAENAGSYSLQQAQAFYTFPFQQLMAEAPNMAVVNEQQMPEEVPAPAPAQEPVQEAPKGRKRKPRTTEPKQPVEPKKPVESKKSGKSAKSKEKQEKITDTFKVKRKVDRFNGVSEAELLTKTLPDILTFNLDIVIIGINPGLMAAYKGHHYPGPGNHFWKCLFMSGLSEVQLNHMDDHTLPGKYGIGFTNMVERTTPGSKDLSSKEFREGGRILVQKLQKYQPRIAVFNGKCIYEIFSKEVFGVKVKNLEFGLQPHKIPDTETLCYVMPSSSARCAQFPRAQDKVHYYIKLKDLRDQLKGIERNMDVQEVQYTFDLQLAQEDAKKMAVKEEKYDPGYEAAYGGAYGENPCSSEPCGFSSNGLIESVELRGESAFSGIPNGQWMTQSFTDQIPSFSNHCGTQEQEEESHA
test-summary: EMSA; Hill 4.5; EMSA: 5 nM substrate, 100 mM NaCl, 2.5 mM MgCl2, 10 mM Tris-HCl pH 7.5, 5% glycerol, 30 min 30 C, 0.6% agarose 1x TBE 4 C; NMR: 0.1 M NaCl, 0.03 mM TCEP, 15 mM
condition: protein: recombinant; tags: His tag (pET28a, TALON purified); label: 5'-FAM strand 1; blunt
property-name: pKd
Reminder that pKd is minus the log10 of a molar concentration.

Asked: Could you tell me which pKd is on file for H1-C (DNA:RNA, strand 2 RNA) DNA: TGAGGATGTATATATCTGACGCGCCGGTGGAGC RNA: GCUCCACCGGCGCGUACGAUAUAUACAUCCUCA ?
Given back: 7.17

All values here come from paper PMC13022674.
